Parameter Ki: see the listing below.
biological target: mouse MMP-2 (R&D Systems #924-MP-010) (mouse) (UniProt P33434); experiment: Ki,app, enzyme inhibition assay (fluorogenic peptide substrate), medium-scale sFab
The reply should be a number in nM, with the unit left off.

See these solved cases before continuing.
binder	Ki, nM
M0299-A12 (Fab, V domains shown) VH: EVQLLESGGGLVQPGGSLRLSCAASGFTFSHYPMWWVRQAPGKGLEWVSYISSSGGGTFYADSVKGRFTISRDNSKNTLYLQMNSLRAEDTAVYYCAKDRAYGDYVGWNGFDYWGQGTLVTVSS VL: DIQMTQSPATLSLSPGERATLSCRASQSISSFLAWYQQKPGQAPRLLIYDASYRATGIPARFSGSGSGTDFTLTISSLEPEDYAVYYCQQRGNWPITFGQGTRLEIK	30
M0301-A09 (Fab, V domains shown) VH: EVQLLESGGGLVQPGGSLRLSCAASGFTFSYYDMWWVRQAPGKGLEWVSVIYPSGGYTAYADSVKGRFTISRDNSKNTLYLQMNSLRAEDTAVYYCAKDRAYGDYVGWNGFDYWGQGTLVTVSS VL: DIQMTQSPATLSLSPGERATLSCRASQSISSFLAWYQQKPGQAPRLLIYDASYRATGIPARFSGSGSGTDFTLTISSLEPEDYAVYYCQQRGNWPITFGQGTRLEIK	21

Lab note: next binder to report on.
Query: I have this binder here, M0273-G07 (Fab, V domains shown) VH: EVQLLESGGGLVQPGGSLRLSCAASGFTFSHYDMWWVRQAPGKGLEWVSVIYPSGGPTYYADSVKGRFTISRDNSKNTLYLQMNSLRAEDTAVYYCAKDRAYGDYVGWNGFDYWGQGTLVTVSS VL: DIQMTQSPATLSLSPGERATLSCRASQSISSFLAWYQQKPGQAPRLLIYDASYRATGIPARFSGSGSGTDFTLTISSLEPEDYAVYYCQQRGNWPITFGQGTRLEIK , and I need its recorded Ki.
Response: 22
